assay.system: IgG1 Fc (Homo sapiens (Human), UniProt P01857 104-328, glycosylated)
test: capillary electrophoresis; 20 mM Tris pH 7.4, 10 mM NaCl, 1 mM MgCl2, 0.05% Tween 20, 37 C
test.parameters: tags: His; chain copies: 2; label: 5'-FAM
pKd: −log10 of the molar value.
parameter.measured: pKd

Sure, the documented pKd for Tac-A5 (ssDNA, every T at positions 21-70 is 5-[(3-indolyl)propionamide-N-allyl]-dU (Utrp); T in 5' primer region (1-20) natural) DNA: TCGCCTTGCCGGATCGCAGATCTGTTCCGTGTTCGTTCCTTTCCTTGTTGTGGTCCGTGAGCCTGACACC is < 6.00

Measured values drawn from paper PMC8232673 for this set.
